- Target or test system: T1, human MSLN-R1-his protein (human, UniProt Q13421 296-390)
- T1 construct: also called human MSLN-R1 protein; hMSLN-R1-his; not shown: His tag
- T1 sequence (Q13421 other isoform, or with tags, fused parts or gaps): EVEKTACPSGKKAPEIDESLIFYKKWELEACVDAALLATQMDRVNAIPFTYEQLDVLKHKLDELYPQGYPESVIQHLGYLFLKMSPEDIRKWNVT
- Protocol text: ELISA, coated antigen; antibody 0.0001 nM
Assay metric: OD450

[
  {
    "Binder": "S009-F5-9.16 (antibody, human IgG1, kappa, V domains shown, Human-murine chimeric antibody, human IgG1/kappa constant regions) VH: EVQLRQSGPVLVKPGASVKMSCKASGYTFTDYFMNWVKPSHGKSLEWIGVINPSNGVINYNQRFKGKATLTVDKSSSTAYMELNSLTSEDSAVYYCARSYDFAWFAYWGQGTLVTVSA VL: DVLMTQTPLSLPVSLGDQASISCRSSQNIVHSNGNTYLEWYLQKPGQSPKLLIYTVSNRFSGVPDRFSGSGSGTDFTLKISRVEAEDLGVYYCFQGSHVPYTFGGGTKLEIKR",
    "OD450": "0.05 OD450"
  },
  {
    "Binder": "S009-F4-94.15 (antibody, human IgG1, kappa, V domains shown, Human-murine chimeric antibody, human IgG1/kappa constant regions) VH: QVQLHQPGAELVRPGSSVKLSCKASGYTFTSYWVHWVQQRPRQGLEWIGNIDPSDSEIHYNQKFKDKATLTVDKSSSTAYIHLSRLTSEDSAIYYCVRGGVPWFAYWGQGTLVTVSA VL: QIVLTQSPAIMSASPGEKVTLTCSASSSVSSTYLYWFQQKPGSSPKVWIYSTSNLASGVPARFSGSGSGTSYSLTISSMEAEDAASYFCHQWISYPYTFGGGTKLEIKR",
    "OD450": "0.05 OD450"
  },
  {
    "Binder": "S009-F6-76.1 (antibody, human IgG1, kappa, V domains shown, Human-murine chimeric antibody, human IgG1/kappa constant regions) VH: QVQLQQSGPELVKPGASVKISCKASGYTFTDYYINWVKQRPGQGLEWIGWIFPGRGSTFYYEKFKGKATLTVDKSSSTAYMLLSSLTSEDSAVYFCARRGDSAGYEDLDYWGQGTSVTVSS VL: NIVMTQSPKFMSMSVGERVTLSCKASENVVTYVSWYQQKPKQSPKLLIYGASKRYTGVPDRFTGSGSATDFTLTISSVQAEDLGDYHCGQSYSYPYTFGGGTKLEIKR",
    "OD450": "0.04 OD450"
  }
]

Kindly note the recorded OD450 for S009-F4-127.10 (antibody, human IgG1, kappa, V domains shown, Human-murine chimeric antibody, human IgG1/kappa constant regions) VH: EVQLQQSGPVLVKPGASVKMSCKASGYTFTDYYMNWVKQSHGKSPEWIGVINPYNDVISYNQKFKGKATLTVDKSSSTAYMELNSLTSEDSAVYYCANYGSSYYAMDYWGQGTSVTVSS VL: DVVMTQTPLSLSVSLGDQASISCRSSQSLVHSNGNTYLQWSLQKPGQSPNLLIYKVSNRFSGVPDRFSGSGSGTDFTLKISRVEAEDLGVYFCSQTTHVPFTFGGGTKLEIRR , which is 0.05 OD450
